Form field: pEC50 (one value per entry).
Tested on: NFkB activity
procedure_summary: Glucocorticoid Mediated Transrepression of NFkB Activity
Type: cell-based
test_settings: Human A549 lung epithelial cells, NFkB dependent ELAM promoter alkaline phosphatase reporter, 3 ng/ml TNFα
pEC50: −log10 of the molar value.

Worked examples, 3 compounds total:
Cc1cc(NCC(O)(CC(C)(C)c2cc(F)ccc2O)C(F)(F)F)c2cnn(-c3cccc(C(=O)NCC(N)=O)c3)c2c1 (centres unmarked) ... > 8.50
COc1ccc(F)cc1C(C)(C)CC(O)(CNc1cc(C)cc2c1cnn2-c1cccc(C(=O)N[C@@H](C)C(N)=O)c1)C(F)(F)F (some centres unmarked) ... > 8.50
COc1ccc(F)cc1C(C)(C)CC(O)(CNc1cc(C)cc2c1cnn2-c1cccc(C(=O)NCC(N)=O)c1)C(F)(F)F (racemic) [Example 1] ... > 8.50

(Q) For COc1ccc(F)cc1C(C)(C)CC(O)(CNc1cc(C)cc2c1cnn2-c1cccc(C(=O)N(C)[C@@H](C)C(N)=O)c1)C(F)(F)F (some centres unmarked) , what is its reported pEC50?
(A) > 8.50

(Q) What does the data say about its pEC50? Entry: COc1ccc(F)cc1C(C)(C)CC(O)(CNc1cc(C)cc2c1cnn2-c1cccc(C(=O)N2CCC[C@@H]2C(N)=O)c1)C(F)(F)F (mixture of isomers)
(A) > 8.50

(Q) Given the entry Cc1cc(NCC(O)(CC(C)(C)c2cc(F)ccc2O)C(F)(F)F)c2cnn(-c3cccc(C(=O)N[C@H](C)C(N)=O)c3)c2c1 (some centres unmarked) , report its measured pEC50.
(A) > 8.50

(Q) What does the data say about its pEC50? Entry: COc1ccc(F)cc1C(C)(C)CC(O)(CNc1cc(C)cc2c1cnn2-c1cccc(C(=O)N[C@@H](CO)C(N)=O)c1)C(F)(F)F (some centres unmarked)
(A) > 8.50

(Q) Would you mind telling me what pEC50 value was observed for Cc1cc(NCC(O)(CC(C)(C)c2cc(F)ccc2O)C(F)(F)F)c2cnn(-c3cccc(C(=O)N(C)CC(N)=O)c3)c2c1 (centres unmarked) ?
(A) > 8.50

(Q) Requested field: pEC50. Item: COc1ccc(F)cc1C(C)(C)CC(O)(CNc1cc(C)cc2c1cnn2-c1cccc(C(=O)N(C)[C@H](C)C(N)=O)c1)C(F)(F)F (some centres unmarked)
(A) > 8.50

(Q) Field request: pEC50 | item: COc1ccc(F)cc1C(C)(C)CC(O)(CNc1cc(C)cc2c1cnn2-c1cccc(C(=O)N(C)CC(N)=O)c1)C(F)(F)F (racemic) [Example 2]
(A) > 8.50

(Q) Entry under review: COc1ccc(F)cc1C(C)(C)CC(O)(CNc1cc(C)cc2c1cnn2-c1cccc(C(=O)NC(C)(C)C(N)=O)c1)C(F)(F)F (racemic) [Example 5] . Reported pEC50?
(A) > 8.50

====

Below, each entry is listed alongside its reported pEC50.
Test system: NFkB activity
procedure_summary: Glucocorticoid Mediated Transrepression of NFkB Activity
Assay type: cell-based
test_settings: Human A549 lung epithelial cells, NFkB dependent ELAM promoter alkaline phosphatase reporter, 3 ng/ml TNFα
Procedure: Glucocorticoid Mediated Transrepression of NFkB Activity […] Compounds were solvated and diluted in DMSO, and transferred directly into assay plates such that the final concentration of DMSO was 0.7%. […] Following continued incubation for 16 hr, alkaline phosphatase activity was determined by measuring the change in optical density at 405 nm with time following the addition of 0.7 volumes of assay buffer (1 mg/ml p-nitrophenylphosphate dissolved in 1M diethanolamine, 0.28M NaCl, 0.5 mM MgCl2). […]
pEC50: −log10 of the molar value.

Please review the entries below; each comes with its answer.
COc1ccc(F)cc1C(C)(C)CC(O)(CNc1cc(C)cc2c1cnn2-c1cccc(C(=O)N[C@H](CO)C(N)=O)c1)C(F)(F)F (some centres unmarked) ... > 8.50
CNC(=O)CNC(=O)c1cccc(-n2ncc3c(NCC(O)(CC(C)(C)c4cc(F)ccc4OC)C(F)(F)F)cc(C)cc32)c1 (centres unmarked) ... > 8.50
COc1ccc(F)cc1C(C)(C)CC(O)(CNc1cc(C)cc2c1cnn2-c1cccc(C(=O)NCC(N)=O)c1)C(F)(F)F (single isomer, unassigned) [Example 1-A] ... > 8.50
Cc1cc(NCC(O)(CC(C)(C)c2cc(F)ccc2O)C(F)(F)F)c2cnn(-c3cccc(C(=O)N4CCC[C@@H]4C(N)=O)c3)c2c1 (some centres unmarked) ... > 8.50
COc1ccc(F)cc1C(C)(C)CC(O)(CNc1cc(C)cc2c1cnn2-c1cccc(C(=O)N2CCC[C@H]2C(N)=O)c1)C(F)(F)F (some centres unmarked) ... > 8.50

(Q) For COc1ccc(F)cc1C(C)(C)CC(O)(CNc1cc(C)cc2c1cnn2-c1cccc(C(=O)NC(C)(C)C(N)=O)c1)C(F)(F)F (single isomer, unassigned) [Example 5-A] , what is its reported pEC50?
(A) > 8.50

(Q) Using the record for COc1ccc(F)cc1C(C)(C)C[C@@](O)(CNc1cc(C)cc2c1cnn2-c1cccc(C(=O)N2CCC[C@@H]2C(N)=O)c1)C(F)(F)F (single isomer, unassigned) , report its pEC50.
(A) > 8.50

(Q) What measured pEC50 goes with COc1ccc(F)cc1C(C)(C)CC(O)(CNc1cc(C)cc2c1cnn2-c1cccc(C(=O)N(C)CC(N)=O)c1)C(F)(F)F (single isomer, unassigned) [Example 2-A] ?
(A) > 8.50

(Q) Could you tell me which pEC50 is on file for Cc1cc(NC[C@](O)(CC(C)(C)c2cc(F)ccc2O)C(F)(F)F)c2cnn(-c3cccc(C(=O)N4CCC[C@@H]4C(N)=O)c3)c2c1 ?
(A) > 8.50

(Q) Which pEC50 reading was recorded for the compound COc1ccc(F)cc1C(C)(C)CC(O)(CNc1cc(C)cc2c1cnn2-c1cccc(C(=O)N[C@H](C)C(N)=O)c1)C(F)(F)F (single isomer, unassigned) [Example 3-A] ?
(A) > 8.50

(Q) Fill blank: measured pEC50 of the compound COc1ccc(F)cc1C(C)(C)CC(O)(CNc1cc(C)cc2c1cnn2-c1cccc(C(=O)N[C@H](C)C(N)=O)c1)C(F)(F)F (mixture of isomers) [Example 3] is ____.
(A) > 8.50
